Record form. Attribute: pIC50. Fill in for each entry.
- Tested on: DU-145
- experiment: Cytotoxicity against human DU145 cells by MTT assay
- Assay type: functional, cell-based
pIC50: −log10 of the molar value.

Hi! Can you tell me pIC50 for each of these molecules?
1. CC(C)=CCC[C@@H](C)[C@H]1CC[C@@]2(C)[C@@H]3CC[C@H]4C(C)(C)[C@H](O)[C@H](O)[C@H](O)[C@@]45C[C@@]35CC[C@]12C
2. CC(=O)O[C@H]1[C@@H](O)[C@H](O)C(C)(C)[C@@H]2CC[C@@H]3[C@]4(CC[C@]5(C)[C@@H]([C@H](C)CCC=C(C)C)CC[C@@]35C)C[C@]124
3. CC(C)=CCC[C@@H](C)[C@H]1CC[C@@]2(C)[C@@H]3CC[C@H]4C(C)(C)[C@@H](O)C[C@H](O)[C@@]45C[C@@]35CC[C@]12C
4. C[C@H](C/C=C/C(C)(C)O)[C@H]1CC[C@@]2(C)[C@@H]3CC[C@H]4C(C)(C)[C@@H](O)[C@H](O)[C@H](O)[C@@]45C[C@@]35CC[C@]12C

Solution:
1. < 4.30
2. < 4.30
3. < 4.30
4. 4.46
